SYSTEM_UNDER_TEST: T1, mCerulean3-Bcl-2 (human, UniProt P10415 1-239)
T1 construct: Bcl-2, human; GGS linker between mCerulean3 and Bcl-2; also called ^CBcl-2; ^cBcl-2; source: MCF-7, stably transfected clone, in live cells; not shown: mCerulean3, N-terminal, kept
PROCEDURE_SUMMARY: FRET or BRET; FLIM-FRET in live MCF-7 cells: mCer3-Bcl-XL or mCer3-Bcl-2 stably expressed (donor), Venus-BH3 protein transiently expressed (acceptor); binding curves of FLIM-FRET efficiency against the Venus:mCer3 intensity ratio, 25 C; untreated, DMSO, 20 uM ABT-263 (18-24 h) or 1.25-20 uM A-1155463, A-1331852, ABT-263; R values interpolated at ratio 0.5 (Bcl-XL) or 0.25 (Bcl-2), ^VBad4E signal subtracted
TEST_SETTINGS: partners not purified
OBSERVED_PROPERTY: R_(ABT-263), % of FRET signal left with 20 uM ABT-263

BINDER: Venus-BimEL (natural protein, mouse, UniProt O54918-1 1-196, looked up, BimEL, mouse; GGS linker after Venus; also called ^VBimEL; ^vBimEL; source: MCF-7 and BMK-DKO, transiently transfected, in live cells; not shown: Venus, N-terminal, kept) MAKQPSDVSSECDREGGQLQPAERPPQLRPGAPTSLQTEPQGNPDGEGDRCPHGSPQGPLAPPASPGPFATRSPLFIFVRRSSLLSRSSSGYFSFDTDRSPAPMSCDKSTQTPSPPCQAFNHYLSAMASIRQSQEEPEDLRPEIRIAQELRRIGDEFNETYTRRVFANDYREAEDHPQMVILQLLRFIFRLVWRRH
OBSERVED: 83.1%
